Data credit: patent US6620828B2

Entries and their measured inhibition at 20 µM follow.
# TARGET OR TEST SYSTEM: phosphorylated VEGF-R2Δ50 (FLVK-P) (Homo sapiens, UniProt P35968, DEL940-989/E990V)
# Construct: VEGF-R2Δ50 contains residues 806-939 and 990-1171; made in house; host or cells: baculovirus/insect cells
# PROTOCOL TEXT: VEGF-R2 coupled spectrophotometric (FLVK-P) assay
# Type: biochemical
# RUN CONDITIONS: read-out: VEGF % inhibition at 20 μM, 20 μM; combinatorial library compounds

# COMPOUND, inhibition at 20 µM, %
measured = [
    ("CC(C)c1ccc(Nc2nc(N)c(-c3nc(-c4ccc(O)cc4)cs3)s2)cc1", 49),
    ("COc1ccccc1-c1csc(-c2sc(Nc3ccc(N(C)C)cc3)nc2N)n1", 0),
    ("Cc1c(-c2csc(-c3sc(Nc4ccc(N(C)C)cc4)nc3N)n2)sc2ccc(Cl)cc12 [drawing 550]", 31),
    ("Cc1cc(-c2csc(-c3sc(Nc4ccc(N(C)C)cc4)nc3N)n2)c(C)s1", 32),
    ("Cn1cc(-c2csc(-c3sc(Nc4ccc(S(N)(=O)=O)cc4)nc3N)n2)cc1C(=O)C(Cl)(Cl)Cl", -4),
    ("CCOC(=O)c1ccccc1-c1csc(-c2sc(Nc3ccc(C(C)C)cc3)nc2N)n1", 26),
    ("CN(C)c1ccc(Nc2nc(N)c(-c3nc(-c4ccc5c(c4)OCCO5)cs3)s2)cc1", 16),
    ("COc1cccc(-c2csc(-c3sc(Nc4ccc(S(N)(=O)=O)cc4)nc3N)n2)c1", 23),
    ("Cc1cc(-c2csc(-c3sc(Nc4ccc(S(N)(=O)=O)cc4)nc3N)n2)cc(C)c1O", 25),
    ("CC(C)c1ccc(Nc2nc(N)c(-c3nc(-c4ccc(O)c(O)c4)cs3)s2)cc1", 28),
    ("CN(C)c1ccc(Nc2nc(N)c(-c3nc(-c4ccc(F)c(F)c4)cs3)s2)cc1", 8),
    ("CC(C)c1ccc(Nc2nc(N)c(-c3nc(-c4ccccc4[N+](=O)[O-])cs3)s2)cc1", 16),
    ("CN(C)c1ccc(Nc2nc(N)c(-c3nc(-c4ccc(F)cc4F)cs3)s2)cc1", 34),
    ("Cc1cc(-c2csc(-c3sc(Nc4ccc(C(C)C)cc4)nc3N)n2)ccc1Cl", -7),
    ("COc1ccccc1-c1csc(-c2sc(Nc3ccc(S(N)(=O)=O)cc3)nc2N)n1 [drawing 394]", 21),
    ("CC(C)c1ccc(Nc2nc(N)c(-c3nc(-c4ccc[nH]4)cs3)s2)cc1", 22),
    ("Nc1nc(Nc2ccc(S(N)(=O)=O)cc2)sc1-c1nc(-c2ccc(Cl)c(Cl)c2)cs1", 9),
    ("CN(C)c1ccc(Nc2nc(N)c(-c3nc(-c4cc(-c5ccc(Cl)c(Cl)c5)no4)cs3)s2)cc1", 1),
    ("CC(C)c1ccc(Nc2nc(N)c(-c3nc(-c4ccc(Cl)c(Cl)c4)cs3)s2)cc1", -4),
]

====

# Test system: human umbilical vein endothelial cells (HUVEC)
# PROTOCOL TEXT: HUVEC proliferation assay
# Assay type: cell-based
# RUN CONDITIONS: Homo sapiens, HUVEC, 50 nM; crude combinatorial urea library; read-out: Inhibition of HUVEC Proliferation % inhibition @ 50 nM
Entries and their measured inhibition at 0.05 µM follow.
MEASUREMENT TYPE: inhibition at 0.05 µM

# MOLECULE, RESULT
data = [
    ("COc1cccc(C(=O)Nc2cccc(-c3csc(-c4sc(NC(=O)NCc5ccccn5)nc4N)n3)c2)c1", "103%"),
    ("COc1cccc(C(=O)Nc2cccc(-c3csc(-c4sc(NC(=O)NCC(F)(F)F)nc4N)n3)c2)c1", "15%"),
    ("COc1cccc(C(=O)Nc2cccc(-c3csc(-c4sc(NC(=O)NCCc5c[nH]cn5)nc4N)n3)c2)c1", "-43%"),
    ("COc1cccc(C(=O)Nc2cccc(-c3csc(-c4sc(NC(=O)NCC(=N)N)nc4N)n3)c2)c1", "46%"),
    ("COCCNC(=O)Nc1nc(N)c(-c2nc(-c3cccc(NC(=O)c4cccc(OC)c4)c3)cs2)s1", "32%"),
    ("COc1cccc(C(=O)Nc2cccc(-c3csc(-c4sc(NC(=O)NCCN(C)C)nc4N)n3)c2)c1", "46%"),
    ("CCN1CC(NC(=O)Nc2nc(N)c(-c3nc(-c4cccc(NC(=O)c5cccc(OC)c5)c4)cs3)s2)CN1CC", "45%"),
    ("COc1cccc(C(=O)Nc2cccc(-c3csc(-c4sc(NC(=O)NCc5ccccc5)nc4N)n3)c2)c1", "114%"),
    ("CCCCN(CC)CCNC(=O)Nc1nc(N)c(-c2nc(-c3cccc(NC(=O)c4cccc(OC)c4)c3)cs2)s1", "10%"),
    ("COc1cccc(C(=O)Nc2cccc(-c3csc(-c4sc(NC(=O)NCCN5CCNC5=O)nc4N)n3)c2)c1", "35%"),
    ("COc1cccc(C(=O)Nc2cccc(-c3csc(-c4sc(NC(=O)NCC5CCCO5)nc4N)n3)c2)c1 (centres unmarked)", "87%"),
    ("COc1cccc(C(=O)Nc2cccc(-c3csc(-c4sc(NC(=O)NCC(C)C)nc4N)n3)c2)c1", "-23%"),
    ("CCCCN(CCCC)CCCNC(=O)Nc1nc(N)c(-c2nc(-c3cccc(NC(=O)c4cccc(OC)c4)c3)cs2)s1", "62%"),
    ("COc1cccc(C(=O)Nc2cccc(-c3csc(-c4sc(NC(=O)NCCCN5CCCCC5)nc4N)n3)c2)c1", "49%"),
    ("COc1cccc(C(=O)Nc2cccc(-c3csc(-c4sc(NC(=O)NCCCN(CCO)CCO)nc4N)n3)c2)c1", "65%"),
    ("COc1cccc(C(=O)Nc2cccc(-c3csc(-c4sc(NC(=O)NCCS(=O)(=O)O)nc4N)n3)c2)c1", "46%"),
    ("COc1cccc(C(=O)Nc2cccc(-c3csc(-c4sc(NCCC(=O)NCC(=O)O)nc4N)n3)c2)c1", "7%"),
]

====

# Test system: human umbilical vein endothelial cells (HUVEC)
# PROTOCOL TEXT: HUVEC proliferation assay
# Assay type: cell-based
# RUN CONDITIONS: Homo sapiens, HUVEC, Table II screening results; 10 nM; crude combinatorial amide library; read-out: % inhibition @ 10 nM
Entries and their measured inhibition at 0.01 µM follow.

# MOLECULE, inhibition at 0.01 µM, %
records = [
    ("CNC(=O)Nc1nc(N)c(-c2nc(-c3cccc(NC(=O)C4C[C@@H]5C[C@H]4CCC5O)c3)cs2)s1 (stereo partly drawn)", 21),
    ("CNC(=O)Nc1nc(N)c(-c2nc(-c3cccc(NC(=O)C(=O)C4=CCCCC4)c3)cs2)s1", 19),
    ("CNC(=O)Nc1nc(N)c(-c2nc(-c3cccc(NC(=O)/C=C/C(=O)NCC4CC4)c3)cs2)s1", 1),
    ("CNC(=O)Nc1nc(N)c(-c2nc(-c3cccc(NC(=O)Cn4ccc5ccccc54)c3)cs2)s1", -15),
    ("CCO/C(C)=C/C(=O)Nc1cccc(-c2csc(-c3sc(NC(=O)NC)nc3N)n2)c1", 47),
    ("CNC(=O)Nc1nc(N)c(-c2nc(-c3cccc(NC(=O)c4cc(C)on4)c3)cs2)s1", 10),
    ("CNC(=O)Nc1nc(N)c(-c2nc(-c3cccc(NC(=O)C4(c5ccc(C)cc5)CC4)c3)cs2)s1", -6),
    ("CNC(=O)Nc1nc(N)c(-c2nc(-c3cccc(NC(=O)CC4CC5CCC4C5)c3)cs2)s1 (stereo not drawn)", 93),
    ("CNC(=O)Nc1nc(N)c(-c2nc(-c3cccc(NC(=O)C(O)c4ccccc4)c3)cs2)s1 (stereo not drawn)", -11),
]

====

# TARGET OR TEST SYSTEM: unphosphorylated VEGF-R2Δ50 (FLVK) (Homo sapiens, UniProt P35968, DEL940-989/E990V)
# Construct: VEGF-R2Δ50 contains residues 806-939 and 990-1171; made in house; host or cells: baculovirus/insect cells
# Sequence (P35968 with tags, fused parts or gaps DEL940-989/E990V limits assumed): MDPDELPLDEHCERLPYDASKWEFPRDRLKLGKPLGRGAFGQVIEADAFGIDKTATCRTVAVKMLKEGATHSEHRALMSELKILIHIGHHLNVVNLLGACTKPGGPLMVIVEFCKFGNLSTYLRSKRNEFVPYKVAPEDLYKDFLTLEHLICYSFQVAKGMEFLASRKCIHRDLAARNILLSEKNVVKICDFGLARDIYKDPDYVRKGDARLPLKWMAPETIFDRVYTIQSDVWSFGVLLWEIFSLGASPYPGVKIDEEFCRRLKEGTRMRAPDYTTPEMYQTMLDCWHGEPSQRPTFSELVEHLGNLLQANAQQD
# PROTOCOL TEXT: VEGF-R2 coupled spectrophotometric assay, unphosphorylated enzyme (FLVK)
# Type: biochemical
# RUN CONDITIONS: Table 3; some entries 'Slow binder'

# COMPOUND, UNIT OF MEASUREMENT, Ki
records = [
    ("COc1cc(Nc2nc(N)c(-c3nc(-c4cc(NC(=O)OC(C)(C)C)ccc4F)no3)s2)cc(OC)c1OC", "nM", 2.3),
    ("C/C=C(/C)C(=O)Nc1ccc(C)c(-c2noc(-c3sc(Nc4ccc(N5CCN(C)CC5)nc4)nc3N)n2)c1", "nM", 5.1),
    ("Cc1cccc(C(=O)Nc2cccc(-c3noc(-c4sc(NC(=O)NC(C)C)nc4N)n3)c2)c1", "nM", 0.25),
    ("COc1cc(Nc2nc(N)c(-c3nc(-c4cc(NC(=O)c5cccc(Cl)c5)c(F)cc4F)no3)s2)cc(OC)c1OC", "nM", 1),
    ("COc1cccc(C(=O)Nc2cc(-c3noc(-c4sc(NC(=O)N[C@H]5CC[C@H](O)CC5)nc4N)n3)c(F)cc2F)c1", "nM", 0.45),
    ("COc1cccc(C(=O)Nc2ccc(C)c(-c3noc(-c4sc(Nc5ccccc5)nc4N)n3)c2)c1", "nM", 0.26),
    ("CNC(=O)Nc1nc(N)c(-c2nc(-c3cc(NC(=O)c4cccc(OC)c4)c(F)cc3F)no2)s1", "nM", 0.19),
    ("COc1cccc(C(=O)Nc2cc(-c3noc(-c4sc(NC(=O)NCC5CCCO5)nc4N)n3)c(F)cc2F)c1 (stereo not drawn)", "nM", 0.22),
    ("Cc1ccc(NC(=O)C(O)CC(C)C)cc1-c1noc(-c2sc(Nc3ccc(N4CCN(C)CC4)nc3)nc2N)n1 (stereo not drawn)", "nM", 0.9),
    ("CCn1nc(C)cc1C(=O)Nc1ccc(C)c(-c2noc(-c3sc(Nc4ccc(N5CCN(C)CC5)nc4)nc3N)n2)c1", "nM", 0.3),
    ("COc1cccc(C(=O)Nc2cc(-c3noc(-c4sc(NC(=O)NCc5ccccn5)nc4N)n3)c(F)cc2F)c1", "nM", 0.21),
    ("COc1cc(Nc2nc(N)c(-c3nc(-c4cc(NC(=O)OC(C)(C)C)c(F)cc4F)no3)s2)cc(OC)c1OC", "nM", 1.3),
    ("COc1cc(Nc2nc(N)c(-c3nc(-c4cccc(NC(=O)c5ccc(CN6CCOCC6)cc5)c4)no3)s2)cc(OC)c1OC", "nM", 2.7),
    ("COc1cc(Nc2nc(N)c(-c3nc(-c4cc(NC(=O)OC(C)(C)C)c(Cl)cc4Cl)no3)s2)cc(OC)c1OC", "nM", 1.7),
    ("COc1cccc(C(=O)Nc2ccc(F)c(-c3noc(-c4sc(Nc5cc(OC)c(OC)c(OC)c5)nc4N)n3)c2)c1", "nM", 0.9),
]
